For each of the variants below, state its 8OG:A repair function score.
B1: library; numbered along this chain (parent)
chain: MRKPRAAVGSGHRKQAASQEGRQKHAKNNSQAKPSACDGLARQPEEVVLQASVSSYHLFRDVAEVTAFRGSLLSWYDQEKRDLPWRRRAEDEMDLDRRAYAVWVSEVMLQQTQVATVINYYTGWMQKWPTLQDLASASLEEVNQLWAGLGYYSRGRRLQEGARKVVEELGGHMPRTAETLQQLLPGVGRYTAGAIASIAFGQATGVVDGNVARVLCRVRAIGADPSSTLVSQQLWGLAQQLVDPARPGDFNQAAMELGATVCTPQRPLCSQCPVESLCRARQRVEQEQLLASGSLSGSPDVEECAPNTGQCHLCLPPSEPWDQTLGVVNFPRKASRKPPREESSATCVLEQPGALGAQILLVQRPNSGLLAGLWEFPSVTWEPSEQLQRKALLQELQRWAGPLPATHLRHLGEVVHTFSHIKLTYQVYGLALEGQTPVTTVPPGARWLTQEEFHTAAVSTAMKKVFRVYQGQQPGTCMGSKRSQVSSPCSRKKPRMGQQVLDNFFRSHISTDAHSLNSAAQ

Variants of: B1
Experiment: 8OG:A repair function score (normalized; synonymous = 0, nonsense = -1) (normalized log-likelihood score); higher = more repair activity (WT-like);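 further: cells sorted at 72 h after reporter transfection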
Conditions: with 8OG:A DNA repair reporter (GFP) in HEK-293 MUTYH KO cells
I'd appreciate a reply containing only the number, no unit.

The variant identified as `A291R` registered its 8OG:A repair function score at -0.0282

The variant identified as `Q43R` registered its 8OG:A repair function score at 0.0791

The variant identified as `L145R` registered its 8OG:A repair function score at -0.0437

The variant identified as `Q450Y` registered its 8OG:A repair function score at 0.286

The variant identified as `R332K` registered its 8OG:A repair function score at -0.206

The variant identified as `Q239Y` registered its 8OG:A repair function score at -0.309

The variant identified as `Q113A` registered its 8OG:A repair function score at -0.108

The variant identified as `A36S` registered its 8OG:A repair function score at -0.0113

The variant identified as `G401T` registered its 8OG:A repair function score at -0.428

The variant identified as `G326T` registered its 8OG:A repair function score at -0.298

The variant identified as `V207G` registered its 8OG:A repair function score at -1.03

The variant identified as `N143Y` registered its 8OG:A repair function score at 0.0152

The variant identified as `V102K` registered its 8OG:A repair function score at -1.71

The variant identified as `Q286T` registered its 8OG:A repair function score at -0.00617

The variant identified as `G186Y` registered its 8OG:A repair function score at -0.992

The variant identified as `R495A` registered its 8OG:A repair function score at -0.0255

The variant identified as `L40S` registered its 8OG:A repair function score at 0.073

The variant identified as `C347S` registered its 8OG:A repair function score at -0.457

The variant identified as `L40I` registered its 8OG:A repair function score at -0.0464

The variant identified as `R86I` registered its 8OG:A repair function score at -0.915

The variant identified as `L392V` registered its 8OG:A repair function score at -0.289

The variant identified as `R217K` registered its 8OG:A repair function score at -1.03

The variant identified as `R491S` registered its 8OG:A repair function score at 0.00574

The variant identified as `L355S` registered its 8OG:A repair function score at -0.0259

The variant identified as `A461Y` registered its 8OG:A repair function score at -0.726

The variant identified as `M496T` registered its 8OG:A repair function score at -0.0187

The variant identified as `L448E` registered its 8OG:A repair function score at -0.411

The variant identified as `Q144P` registered its 8OG:A repair function score at -0.282

The variant identified as `S344D` registered its 8OG:A repair function score at -0.196

The variant identified as `L516N` registered its 8OG:A repair function score at 0.0104

The variant identified as `T455R` registered its 8OG:A repair function score at -0.0505

The variant identified as `S55N` registered its 8OG:A repair function score at 0.00188

The variant identified as `D91G` registered its 8OG:A repair function score at -0.00708

The variant identified as `G475D` registered its 8OG:A repair function score at -0.00652

The variant identified as `L396N` registered its 8OG:A repair function score at -0.969

The variant identified as `P44A` registered its 8OG:A repair function score at -0.142

The variant identified as `E285K` registered its 8OG:A repair function score at -0.0741

The variant identified as `V500P` registered its 8OG:A repair function score at -0.0532

The variant identified as `N307G` registered its 8OG:A repair function score at -0.0226

The variant identified as `A254H` registered its 8OG:A repair function score at -0.175

The variant identified as `L325F` registered its 8OG:A repair function score at -0.00965

The variant identified as `L73T` registered its 8OG:A repair function score at -0.136

The variant identified as `Q498T` registered its 8OG:A repair function score at 0.0263

The variant identified as `S197I` registered its 8OG:A repair function score at -0.959

The variant identified as `F505Y` registered its 8OG:A repair function score at 0.00392

The variant identified as `P267Y` registered its 8OG:A repair function score at -0.838

The variant identified as `S367E` registered its 8OG:A repair function score at 0.154

The variant identified as `P44E` registered its 8OG:A repair function score at -0.0552

The variant identified as `N143V` registered its 8OG:A repair function score at -0.199

The variant identified as `V438P` registered its 8OG:A repair function score at 0.0371

The variant identified as `K481P` registered its 8OG:A repair function score at 0.00979

The variant identified as `Q435T` registered its 8OG:A repair function score at 0.028

The variant identified as `A196G` registered its 8OG:A repair function score at -0.309

The variant identified as `R332V` registered its 8OG:A repair function score at -0.216

The variant identified as `A456Q` registered its 8OG:A repair function score at -0.514

The variant identified as `E160Y` registered its 8OG:A repair function score at -0.063

The variant identified as `L290A` registered its 8OG:A repair function score at -0.0163

The variant identified as `V328Y` registered its 8OG:A repair function score at -0.134

The variant identified as `P299M` registered its 8OG:A repair function score at -0.0166

The variant identified as `R389M` registered its 8OG:A repair function score at -0.236

The variant identified as `Q78D` registered its 8OG:A repair function score at -0.00768

The variant identified as `L393P` registered its 8OG:A repair function score at -0.792

The variant identified as `S490D` registered its 8OG:A repair function score at -0.0147

The variant identified as `V441R` registered its 8OG:A repair function score at -0.293

The variant identified as `F330L` registered its 8OG:A repair function score at -0.149

The variant identified as `G193A` registered its 8OG:A repair function score at -0.0458

The variant identified as `D91E` registered its 8OG:A repair function score at -0.0053

The variant identified as `V441G` registered its 8OG:A repair function score at -0.221

The variant identified as `A519M` registered its 8OG:A repair function score at -0.00851

The variant identified as `S71T` registered its 8OG:A repair function score at -0.0759

The variant identified as `T346K` registered its 8OG:A repair function score at -0.886

The variant identified as `I198S` registered its 8OG:A repair function score at -0.757

The variant identified as `K463P` registered its 8OG:A repair function score at -0.617

The variant identified as `Q388F` registered its 8OG:A repair function score at -0.281

The variant identified as `S298W` registered its 8OG:A repair function score at -0.00249

The variant identified as `N119P` registered its 8OG:A repair function score at -0.0904

The variant identified as `Q323I` registered its 8OG:A repair function score at -0.141

The variant identified as `L40D` registered its 8OG:A repair function score at 0.21

The variant identified as `L373S` registered its 8OG:A repair function score at -0.647

The variant identified as `A291E` registered its 8OG:A repair function score at -0.125

The variant identified as `R81S` registered its 8OG:A repair function score at -0.535

The variant identified as `A194H` registered its 8OG:A repair function score at -1.31

The variant identified as `Q240H` registered its 8OG:A repair function score at -0.94

The variant identified as `I195S` registered its 8OG:A repair function score at -0.944

The variant identified as `Q426G` registered its 8OG:A repair function score at -0.158

The variant identified as `P402N` registered its 8OG:A repair function score at -0.282

The variant identified as `W321K` registered its 8OG:A repair function score at -0.189

The variant identified as `E350M` registered its 8OG:A repair function score at 0.00868

The variant identified as `P316V` registered its 8OG:A repair function score at -0.121

The variant identified as `G293F` registered its 8OG:A repair function score at -0.0692

The variant identified as `E303Y` registered its 8OG:A repair function score at -0.231
